test target: Amine oxidase [flavin-containing] B (Homo sapiens)
Sequence (P27338 whole entry): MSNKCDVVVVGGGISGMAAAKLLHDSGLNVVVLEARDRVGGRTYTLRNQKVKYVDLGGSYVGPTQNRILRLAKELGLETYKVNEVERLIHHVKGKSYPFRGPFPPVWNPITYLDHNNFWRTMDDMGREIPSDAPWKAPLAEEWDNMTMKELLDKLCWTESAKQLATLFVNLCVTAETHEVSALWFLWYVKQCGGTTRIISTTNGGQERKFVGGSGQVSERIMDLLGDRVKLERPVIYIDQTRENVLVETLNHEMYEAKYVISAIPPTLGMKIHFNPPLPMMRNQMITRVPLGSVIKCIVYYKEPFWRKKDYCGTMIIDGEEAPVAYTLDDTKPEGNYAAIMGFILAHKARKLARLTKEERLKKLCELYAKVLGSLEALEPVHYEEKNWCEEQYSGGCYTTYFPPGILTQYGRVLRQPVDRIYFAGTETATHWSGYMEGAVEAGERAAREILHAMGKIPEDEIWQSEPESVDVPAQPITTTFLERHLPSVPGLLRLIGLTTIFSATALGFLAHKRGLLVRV
procedure text: Competitive inhibition of human recombinant MAO-B expressed in insect cell microsome using kynuramine as substrate by Lineweaver-Burk plot analysis
Assay type: microsomes
pKi: −log10 of the molar value.

compound structure string	pKi
Cn1c(=O)c2c(nc(SCCc3ccc(Cl)cc3)n2C)n(C)c1=O	7.89

* * *

Species: Homo sapiens
procedure text: Selectivity index, ratio of IC50 for human recombinant MAO-A to IC50 for human recombinant MAO-B
# maps each entry to its Ratio IC50

compound	Ratio IC50
Cn1c(=O)c2c(nc([S+]([O-])CCc3ccc(F)cc3)n2C)n(C)c1=O (stereo unspecified)	68
Cn1c(=O)c2c(nc(SCc3cccc(Br)c3)n2C)n(C)c1=O	190
Cc1cccc(CCSc2nc3c(c(=O)n(C)c(=O)n3C)n2C)c1	235
COc1ccc(CCSc2nc3c(c(=O)n(C)c(=O)n3C)n2C)cc1	7300
Cn1c(=O)c2c(nc([S+]([O-])Cc3ccccc3)n2C)n(C)c1=O (stereo unspecified)	2
COc1cccc(CCSc2nc3c(c(=O)n(C)c(=O)n3C)n2C)c1	385

* * *

Organism: Homo sapiens
procedure text: Selectivity index, ratio of IC50 for human recombinant MAO-A to IC50 for human recombinant MAO-B
Threshold rule: Ratio IC50 greater than or equal to 300 is fulfilled; below that, not fulfilled.

compound	assigned class
Cn1c(=O)c2c(nc([S+]([O-])CCc3ccc(Cl)cc3)n2C)n(C)c1=O (stereo not drawn)	not fulfilled
Cc1ccc(CCSc2nc3c(c(=O)n(C)c(=O)n3C)n2C)cc1	fulfilled
Cn1c(=O)c2c(nc(SCCc3ccc(Br)cc3)n2C)n(C)c1=O	fulfilled
Cn1c(=O)c2c(nc(SCCCc3ccc(Cl)cc3)n2C)n(C)c1=O	not fulfilled
Cn1c(=O)c2c(nc(SCc3cccc(Cl)c3)n2C)n(C)c1=O	not fulfilled
Cn1c(=O)c2c(nc(SCCCc3cccc(Cl)c3)n2C)n(C)c1=O	not fulfilled
Cn1c(=O)c2c(nc(SCCc3cccc(Br)c3)n2C)n(C)c1=O	not fulfilled
Cn1c(=O)c2c(nc(SCCc3ccccc3)n2C)n(C)c1=O	not fulfilled

* * *

Organism: Homo sapiens
procedure text: Selectivity index, ratio of IC50 for human recombinant MAO-A to IC50 for human recombinant MAO-B

compound	Ratio IC50
Cn1c(=O)c2c(nc(SCCc3cccc(C(F)(F)F)c3)n2C)n(C)c1=O	8290
Cn1c(=O)c2c(nc(SCCc3ccc(Cl)cc3)n2C)n(C)c1=O	423
Cn1c(=O)c2c(nc(SCCc3ccc(F)cc3)n2C)n(C)c1=O	207
Cn1c(=O)c2c(nc([S+]([O-])CCc3ccc(Br)cc3)n2C)n(C)c1=O (stereo not given)	122
Cn1c(=O)c2c(nc(SCCc3cccc(Cl)c3)n2C)n(C)c1=O	132

FYI, the data here is from ChEMBL document CHEMBL2202975.
